Reported molar heat capacity at constant pressure is given for each of the following compounds.
experiment: molar heat capacity at constant pressure; details: 398.15 K; 100 kPa; Crystal; DSC
Report the value in J/K/mol with no unit label.

Can you look up the measured molar heat capacity at constant pressure of c1ccc2cc3ccccc3cc2c1 [anthracene] for me? 291.7

Could you tell me which molar heat capacity at constant pressure is on file for O=c1cc(-c2ccccc2)oc2cccc(O)c12 [5-hydroxyflavone] ? 369.6

Requested field: molar heat capacity at constant pressure. Item: c1cc2ccc3cccc4ccc(c1)c2c34 [pyrene] 341.5

* * *

test: molar heat capacity at constant pressure; conditions: 313.15 K; 100 kPa; Crystal; DSC
Measurement Type: molar heat capacity at constant pressure (J/K/mol)
# value in J/K/mol; strip the unit string

Query (compound): O=c1cc(-c2ccccc2)oc2cc(O)ccc12 [7-hydroxyflavone] ; field requested: molar heat capacity at constant pressure 268.2

Could you share which molar heat capacity at constant pressure value was measured for O=c1cc(-c2ccccc2)oc2cccc(O)c12 [5-hydroxyflavone] ? 297

Quick check: molar heat capacity at constant pressure of c1cc2ccc3cccc4ccc(c1)c2c34 ? 238.7

Fill in: molar heat capacity at constant pressure of O=c1cc(-c2ccccc2)oc2ccc(O)cc12 [6-hydroxyflavone] is ___ 265.7

Look up molar heat capacity at constant pressure for this compound: O=C(O)c1ccccc1 151.4

Further cases:
Please report the recorded molar heat capacity at constant pressure for c1ccc2cc3ccccc3cc2c1 . 221.7

Any idea what molar heat capacity at constant pressure was measured for Nc1ccc2oc(-c3ccccc3)cc(=O)c2c1 ? 292.2

Requested field: molar heat capacity at constant pressure. Item: O=c1c(O)c(-c2ccccc2)oc2ccccc12 [3-hydroxyflavone] 278.3

* * *

Reported molar heat capacity at constant pressure values are given for each entry in this list.
test: molar heat capacity at constant pressure; conditions: 353.15 K; 100 kPa; Crystal; DSC
Numbers after ± are expanded uncertainties.
Reply with a number, then the unit it belongs to.

Which molar heat capacity at constant pressure reading was recorded for the compound O=C(O)c1ccccc1 [benzoic acid] ? 169.1 ± 8.5 J/K/mol

Consider the compound Nc1ccc2oc(-c3ccccc3)cc(=O)c2c1 [6-aminoflavone] and give its measured molar heat capacity at constant pressure. 328.9 ± 16 J/K/mol

Query (compound): c1cc2ccc3cccc4ccc(c1)c2c34 [pyrene] ; field requested: molar heat capacity at constant pressure 279.8 ± 14 J/K/mol

So what does the record say about molar heat capacity at constant pressure for O=c1cc(-c2ccccc2)oc2cccc(O)c12 [5-hydroxyflavone] ? 328.8 ± 16 J/K/mol

Given the compound O=c1cc(-c2ccccc2)oc2ccc(O)cc12 [6-hydroxyflavone] , what is its reported molar heat capacity at constant pressure? 307.1 ± 15 J/K/mol

Given the compound c1ccc2cc3ccccc3cc2c1 [anthracene] , what is its reported molar heat capacity at constant pressure? 254.9 ± 13 J/K/mol

Which molar heat capacity at constant pressure is reported for this compound? O=c1cc(-c2ccccc2)oc2cc(O)ccc12 [7-hydroxyflavone] 303.6 ± 15 J/K/mol

New cases:
// lookup molar heat capacity at constant pressure for O=c1c(O)c(-c2ccccc2)oc2ccccc12 [3-hydroxyflavone] 306.8 ± 15 J/K/mol

* * *

test: molar heat capacity at constant pressure; details: 293.15 K; 100 kPa; Crystal; DSC
Measurement Type: molar heat capacity at constant pressure (J/K/mol)
Field: numeric (J/K/mol). Do not append units.

Report molar heat capacity at constant pressure for c1ccc2cc3ccccc3cc2c1 [anthracene] please. 205.7

// lookup molar heat capacity at constant pressure for c1cc2ccc3cccc4ccc(c1)c2c34 [pyrene] 221.9

Dear colleague, I am looking for the recorded molar heat capacity at constant pressure of the following compound: O=c1cc(-c2ccccc2)oc2cccc(O)c12 [5-hydroxyflavone] 274.6

Look up molar heat capacity at constant pressure: Nc1ccc2oc(-c3ccccc3)cc(=O)c2c1 [6-aminoflavone] 272.6

Which molar heat capacity at constant pressure reading was recorded for the compound O=C(O)c1ccccc1 [benzoic acid] ? 143.2

Any idea what molar heat capacity at constant pressure was measured for O=c1cc(-c2ccccc2)oc2cc(O)ccc12 [7-hydroxyflavone] ? 248.1

Please look up its molar heat capacity at constant pressure: O=c1cc(-c2ccccc2)oc2ccc(O)cc12 [6-hydroxyflavone] 244.4

Reported molar heat capacity at constant pressure for O=c1c(O)c(-c2ccccc2)oc2ccccc12 [3-hydroxyflavone] : what is it? 268.9

* * *

assay: molar heat capacity at constant pressure; details: 338.15 K; 100 kPa; Crystal; DSC
# maps each entry to its molar heat capacity at constant pressure
Reply numerically in J/K/mol, unit not repeated.

Recorded molar heat capacity at constant pressure, per entry:
Give the measured molar heat capacity at constant pressure of O=c1cc(-c2ccccc2)oc2ccc(O)cc12 [6-hydroxyflavone] . 292.7

What value of molar heat capacity at constant pressure has been recorded for this entry: O=c1c(O)c(-c2ccccc2)oc2ccccc12 [3-hydroxyflavone] 295.2

Recorded molar heat capacity at constant pressure of c1ccc2cc3ccccc3cc2c1 , please. 242.2

# lookup: molar heat capacity at constant pressure of O=C(O)c1ccccc1 162.2

---
Look up molar heat capacity at constant pressure: Nc1ccc2oc(-c3ccccc3)cc(=O)c2c1 316.1

Please look up its molar heat capacity at constant pressure: c1cc2ccc3cccc4ccc(c1)c2c34 263.6

So what does the record say about molar heat capacity at constant pressure for O=c1cc(-c2ccccc2)oc2cccc(O)c12 [5-hydroxyflavone] ? 315.9

Request the reported molar heat capacity at constant pressure associated with O=c1cc(-c2ccccc2)oc2cc(O)ccc12 [7-hydroxyflavone] 291.4

* * *

Below, each entry is listed with its recorded molar heat capacity at constant pressure.
assay: molar heat capacity at constant pressure; settings: 403.15 K; 100 kPa; Crystal; DSC
Numbers after ± are expanded uncertainties.

Entry under review: c1cc2ccc3cccc4ccc(c1)c2c34 . Reported molar heat capacity at constant pressure? 349.9 ± 18 J/K/mol

Entry c1ccc2cc3ccccc3cc2c1 : reported molar heat capacity at constant pressure = ? 295.8 ± 15 J/K/mol

Suppose we examine the compound O=c1cc(-c2ccccc2)oc2cccc(O)c12 [5-hydroxyflavone] ; what molar heat capacity at constant pressure value has been reported? 373.8 ± 19 J/K/mol

Form field: reported molar heat capacity at constant pressure of O=c1cc(-c2ccccc2)oc2ccc(O)cc12 [6-hydroxyflavone] 353.2 ± 18 J/K/mol

* * *

Below, each entry is listed alongside its reported molar heat capacity at constant pressure.
assay: molar heat capacity at constant pressure; conditions: 368.15 K; 100 kPa; Crystal; DSC
Kindly provide the numeric value in J/K/mol only, without the unit symbol.

Given Nc1ccc2oc(-c3ccccc3)cc(=O)c2c1 , state its recorded molar heat capacity at constant pressure. 342.2

What value of measured molar heat capacity at constant pressure is listed for c1ccc2cc3ccccc3cc2c1 ? 266.9

Request the reported molar heat capacity at constant pressure associated with O=c1cc(-c2ccccc2)oc2ccc(O)cc12 [6-hydroxyflavone] 321.9

Item O=c1c(O)c(-c2ccccc2)oc2ccccc12 [3-hydroxyflavone] has what recorded molar heat capacity at constant pressure? 319.4

What does the record list as molar heat capacity at constant pressure for O=c1cc(-c2ccccc2)oc2cc(O)ccc12 [7-hydroxyflavone] ? 316.2

Others:
What does the record list as molar heat capacity at constant pressure for O=c1cc(-c2ccccc2)oc2cccc(O)c12 [5-hydroxyflavone] ? 344.8

molar heat capacity at constant pressure lookup needed for O=C(O)c1ccccc1 , thanks. 176.8

# molar heat capacity at constant pressure lookup, item c1cc2ccc3cccc4ccc(c1)c2c34 298.2

* * *

This listing pairs compounds with measured Molar enthalpy of transition or fusion.
assay: Molar enthalpy of transition or fusion; conditions: Crystal; DSC
Kindly provide the numeric value in kcal/mol only, without the unit symbol.

A selection of reference data follows.
Please look up its Molar enthalpy of transition or fusion: c1ccc2cc3ccccc3cc2c1 7.33

Tell me the measured Molar enthalpy of transition or fusion of O=c1c(O)c(-c2ccccc2)oc2ccccc12 [3-hydroxyflavone] , please. 7.76

What does the record list as Molar enthalpy of transition or fusion for O=c1cc(-c2ccccc2)oc2cccc(O)c12 [5-hydroxyflavone] ? 6.49

Can you look up the measured Molar enthalpy of transition or fusion of O=C(O)c1ccccc1 for me? 4.44

***
# Molar enthalpy of transition or fusion lookup, item O=c1cc(-c2ccccc2)oc2cc(O)ccc12 [7-hydroxyflavone] 7.46

Which Molar enthalpy of transition or fusion reading was recorded for the compound O=c1cc(-c2ccccc2)oc2ccc(O)cc12 [6-hydroxyflavone] ? 7.75

Which value of Molar enthalpy of transition or fusion has been reported for Nc1ccc2oc(-c3ccccc3)cc(=O)c2c1 in the records? 7.27

Requested field: Molar enthalpy of transition or fusion. Item: c1cc2ccc3cccc4ccc(c1)c2c34 4.15

* * *

molar heat capacity at constant pressure for assorted compounds
assay: molar heat capacity at constant pressure; conditions: 423.15 K; 100 kPa; Crystal; DSC
Report only the number, with the unit J/K/mol understood.

Below, each entry is followed by its recorded molar heat capacity at constant pressure result.
Requested read-out: molar heat capacity at constant pressure. Entry: O=c1cc(-c2ccccc2)oc2cc(O)ccc12 [7-hydroxyflavone] 358.2

// molar heat capacity at constant pressure lookup, key: O=c1c(O)c(-c2ccccc2)oc2ccccc12 [3-hydroxyflavone] 372.3

Given the compound c1ccc2cc3ccccc3cc2c1 , what is its reported molar heat capacity at constant pressure? 309.9

Entry O=c1cc(-c2ccccc2)oc2ccc(O)cc12 [6-hydroxyflavone] : reported molar heat capacity at constant pressure = ? 370.3

What value of molar heat capacity at constant pressure has been reported for the following compound? Nc1ccc2oc(-c3ccccc3)cc(=O)c2c1 385.4

Then there is this compound:
Can you share its molar heat capacity at constant pressure? I mean this compound: O=c1cc(-c2ccccc2)oc2cccc(O)c12 [5-hydroxyflavone] 395.5
